System: Candida albicans TIMM0136
measurement protocol: MIC by agarose plate dilution method
Type: cell-based
study conditions: saburo-dextrose agarose culture, 30° C., 2 days
Numbered stars: 1 amine (or outer) side, 2 acyl side, 3 side chain; on linkers, the order of the positions; unused ones are H or OH. Square brackets hold non-standard residues; d marks the D form. Peptide text beside a SMILES is read from it. * marks the point of attachment. X1 = CC[C@@H](C)[C@@H](O[*:1])C(=O)[*:2]; NMeVal(β-OH) = CN[C@H](C(=O)O)C(C)(C)O; NMeF = CN[C@@H](Cc1ccccc1)C(=O)O; aIle = CC[C@@H](C)[C@H](N)C(=O)O; Cyclohexylmethyl = C1CCC(C*)CC1; Cha = N[C@@H](CC1CCCCC1)C(=O)O; dNMeV = CN[C@@H](C(=O)O)C(C)C; NMeV = CN[C@H](C(=O)O)C(C)C; dNMeS = CN[C@H](CO)C(=O)O; dNMeA = CN[C@H](C)C(=O)O
# log10(MIC) values compiled below
attribute measured: log10(MIC) (log10 of the value in µg/mL)

{"molecule": "CC[C@@H](C)[C@@H]1NC(=O)[C@@H]2CCCN2C(=O)[C@@H](C(C)C)N(C)C(=O)[C@H](CC2CCCCC2)NC(=O)[C@H](C(C)C)N(C)C(=O)[C@@H]([C@H](C)CC)OC(=O)[C@H](C(C)(C)O)N(C)C(=O)[C@H](CC(C)C)NC(=O)[C@H](C(C)C)N(C)C1=O [Compound 8] (cyclo([aIle][NMeV]L[NMeVal(β-OH)][X1][NMeV][Cha][dNMeV]P))", "test system": "Candida albicans TIMM0136", "attribute measured": "log10(MIC)", "measured value": -1.00}
{"molecule": "CC[C@@H](C)[C@@H]1NC(=O)[C@@H]2CCCN2C(=O)[C@@H](C)N(C)C(=O)[C@H](Cc2ccccc2)NC(=O)[C@H](C(C)C)N(C)C(=O)[C@@H]([C@H](C)CC)OC(=O)[C@H](C(C)(C)O)N(C)C(=O)[C@H](CC(C)C)NC(=O)[C@H](C(C)C)N(C)C1=O [Compound 1] (cyclo([aIle][NMeV]L[NMeVal(β-OH)][X1][NMeV]F[dNMeA]P))", "test system": "Candida albicans TIMM0136", "attribute measured": "log10(MIC)", "measured value": -1.30}
{"molecule": "CC[C@@H](C)[C@@H]1NC(=O)[C@@H]2CCCN2C(=O)[C@H](Cc2ccccc2)N(C)C(=O)[C@H](CC2CCCCC2)NC(=O)[C@H](C(C)C)N(C)C(=O)[C@@H]([C@H](C)CC)OC(=O)[C@H](C(C)(C)O)N(C)C(=O)[C@H](CC(C)C)NC(=O)[C@H](C(C)C)N(C)C1=O [Compound 6] (cyclo([aIle][NMeV]L[NMeVal(β-OH)][X1][NMeV][Cha][NMeF]P))", "test system": "Candida albicans TIMM0136", "attribute measured": "log10(MIC)", "measured value": -0.41}
{"molecule": "CC[C@@H](C)[C@@H]1NC(=O)[C@@H]2CCCN2C(=O)[C@@H](CO)N(C)C(=O)[C@H](CC2CCCCC2)NC(=O)[C@H](C(C)C)N(C)C(=O)[C@@H]([C@H](C)CC)OC(=O)[C@H](C(C)(C)O)N(C)C(=O)[C@H](CC(C)C)NC(=O)[C@H](C(C)C)N(C)C1=O [Compound 9] (cyclo([aIle][NMeV]L[NMeVal(β-OH)][X1][NMeV][Cha][dNMeS]P))", "test system": "Candida albicans TIMM0136", "attribute measured": "log10(MIC)", "measured value": -0.70}
{"molecule": "CC[C@@H](C)[C@@H]1NC(=O)[C@@H]2CCCN2C(=O)[C@@H](C)N(C)C(=O)[C@H](CC2CCCCC2)NC(=O)[C@H](C(C)C)N(C)C(=O)[C@@H]([C@H](C)CC)OC(=O)[C@H](C(C)(C)O)N(C)C(=O)[C@H](CC(C)C)NC(=O)[C@H](C(C)C)N(C)C1=O [Compound 3] (cyclo([aIle][NMeV]L[NMeVal(β-OH)][X1][NMeV][Cha][dNMeA]P))", "test system": "Candida albicans TIMM0136", "attribute measured": "log10(MIC)", "measured value": -1.90}
{"molecule": "CC[C@@H](C)[C@@H]1NC(=O)[C@@H]2CCCN2C(=O)[C@@H](C)N(C)C(=O)[C@H](Cc2ccc(OCC3CCCCC3)cc2)NC(=O)[C@H](C(C)C)N(C)C(=O)[C@@H]([C@H](C)CC)OC(=O)[C@H](C(C)(C)O)N(C)C(=O)[C@H](CC(C)C)NC(=O)[C@H](C(C)C)N(C)C1=O [Compound 12] (cyclo([aIle][NMeV]L[NMeVal(β-OH)][X1][NMeV]Y(Cyclohexylmethyl)[dNMeA]P))", "test system": "Candida albicans TIMM0136", "attribute measured": "log10(MIC)", "measured value": -1.00}
